- PROTOCOL TEXT: Inhibition of the current elicited by 100 uM glutamate by simultaneous co-application of the antagonist in xenopus oocytes injected with a 1:1 mixture of GluR1 flop and GluR2 flop RNA
- Format: functional, cell-based, Xenopus laevis
- EXPERIMENTAL CONDITIONS: oocyte
Measured Ki, listed per entry.

These recorded examples may help you get a feel for the data.
> print(dat)
                                   compound  test.value
1  CCCC(=O)NC(Cc1ccc(O)cc1)C(=O)NCCCCCCCCNCCCN (centres undefined)     > 10 µM
2  CCCC(=O)NC(Cc1ccc(O)cc1)C(=O)NCCCNCCCCNCCCN (centres undefined)      > 5 µM
3  CCCC(=O)NC(Cc1ccc(O)cc1)C(=O)NCCCCNCCCCCCCN (centres undefined)     > 10 µM

In the following, a different compound is considered.
Please give the documented Ki of CCCC(=O)NC(Cc1ccc(O)cc1)C(=O)NCCCCCCCCCNCCN (centres undefined) > 10 µM

###

- PROTOCOL TEXT: Ratio of Ki value at -40 mV to that of -80 mV was determined
- Type: functional
ASSAY METRIC: Ratio

> print(dat)
                                   compound  test.value
1  NCCCNCCCCCCCCNC(=O)C(Cc1ccc(O)cc1)NC(=O)c1cccnc1 (stereo not drawn)         2.4
2  NCCCNCCCCCCCCNC(=O)C(Cc1ccc(O)cc1)NC(=O)c1ccccn1 (stereo not drawn)         1.3

Please give the documented Ratio of CCC(=O)NC(Cc1ccc(O)cc1)C(=O)NCCCCCCCCNCCCN (stereo not drawn) 2.8

Please give the documented Ratio of CCCCCC(=O)NC(Cc1ccc(O)cc1)C(=O)NCCCCCCCCNCCCN (stereo not drawn) 14.7

Please give the documented Ratio of NCCCNCCCCCCCCNC(=O)C(Cc1ccc(O)cc1)NC(=O)c1ccncc1 (stereo not drawn) 5.1

###

Measured Ratio, listed per entry.
- PROTOCOL TEXT: Ratio of Ki value at -40 mV to that of -80 mV was determined
- Type: functional
Answer with a bare number; do not write a unit.

These recorded examples may help you get a feel for the data.
> print(dat)
                                   molecule  test.value
1  NCCCNCCCCCCCCNC(=O)C(Cc1ccc(O)cc1)NC(=O)C1CCCCC1 (stereo not drawn)         3.1
2  CCCC(=O)NC(Cc1ccc(O)cc1)C(=O)NCCCCNCCCCCCCN (stereo not drawn)         3.6
3  NCCCNCCCCCCCCNC(=O)C(Cc1ccc(O)cc1)NC(=O)CCc1ccccc1 (stereo not drawn)           1

Please give the documented Ratio of CC(=O)NC(Cc1ccc(O)cc1)C(=O)NCCCCCCCCNCCCN (stereo not drawn) 1.4

Please give the documented Ratio of CC(C)(C)C(=O)NC(Cc1ccc(O)cc1)C(=O)NCCCCCCCCNCCCN (stereo not drawn) 1.6

Please give the documented Ratio of CCCC(=O)NC(Cc1ccc(O)cc1)C(=O)NCCCCCNCCCCCCN (stereo not drawn) 86

Please give the documented Ratio of CCCC(=O)NC(Cc1ccc(O)cc1)C(=O)NCCCCCCCNCCCCN (stereo not drawn) 18

Please give the documented Ratio of NCCCNCCCCCCCCNC(=O)C(Cc1ccc(O)cc1)NC(=O)c1ccccc1 (stereo not drawn) 1.9
